ASSAY SYSTEM: HDAC1 (Homo sapiens (Human), UniProt Q13547)
Sequence (Q13547 whole entry): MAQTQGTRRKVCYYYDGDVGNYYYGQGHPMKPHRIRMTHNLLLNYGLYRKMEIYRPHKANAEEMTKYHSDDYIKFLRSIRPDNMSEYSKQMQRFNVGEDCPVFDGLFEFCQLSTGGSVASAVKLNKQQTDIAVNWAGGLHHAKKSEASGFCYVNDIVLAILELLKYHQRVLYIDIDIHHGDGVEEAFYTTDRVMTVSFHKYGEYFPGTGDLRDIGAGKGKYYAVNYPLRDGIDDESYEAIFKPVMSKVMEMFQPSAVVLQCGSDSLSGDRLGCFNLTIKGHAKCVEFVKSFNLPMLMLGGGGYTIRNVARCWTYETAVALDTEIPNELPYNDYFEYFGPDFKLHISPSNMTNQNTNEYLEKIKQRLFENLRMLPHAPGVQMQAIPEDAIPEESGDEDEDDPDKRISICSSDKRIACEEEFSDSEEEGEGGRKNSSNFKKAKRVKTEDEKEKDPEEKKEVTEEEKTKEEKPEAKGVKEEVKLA
PROTOCOL NOTES: In vitro enzyme inhibition assay - HDAC (HDAC-Glo I/II), HDAC1
Type: biochemical
CONDITIONS: read-out: HDAC IC50 (nM) HDAC 1
Counter-ions that a name gives are not always drawn.

- COMPOUND: "N#Cc1ccc(-c2c(-c3ccc(N4CCOCC4)c(O)c3)cnc(N3CCC(NCc4ccc(/C=C/C(=O)NO)cc4)CC3)c2C#N)cn1 [Example 244, formate]"
  IC50: "0.51 nM"
- COMPOUND: "COc1ccc(-c2cnc(N3CCC(NCc4ccc(OCC(=O)NO)cc4)CC3)c(C#N)c2-c2ccc(C#N)c(F)c2)cc1O"
  IC50: "0.08 nM"
- COMPOUND: "N#Cc1ccc(-c2c(-c3ccc(Br)c(O)c3)cnc(N3CCC(NCc4ccc(/C=C/C(=O)NO)cc4)CC3)c2C#N)cc1F [Example 127, formate]"
  IC50: "5.82 nM"
- COMPOUND: "COc1ccc(-c2c(OCCCCCCC(=O)NO)cc(N3CCC(N)CC3)nc2-c2ccc(C#N)c(F)c2)cc1O [Example 1, hydrochloride]"
  IC50: "68.1 nM"
- COMPOUND: "COc1ccc(-c2c(OC)cc(N3CCC(NCc4ccc(/C=C/C(=O)NO)cc4)CC3)nc2-c2ccc(C#N)c(F)c2)cc1O [Example 54, formate]"
  IC50: "58.2 nM"
- COMPOUND: "N#Cc1ccc(-c2c(-c3ccc(OC(F)(F)F)c(O)c3)cnc(N3CCC(NCc4ccc(/C=C/C(=O)NO)cc4)CC3)c2C#N)cc1F"
  IC50: "5.59 nM"
- COMPOUND: "COc1ccc(-c2cnc(N3CCC(NCc4ccc(/C=C/C(=O)NO)c(F)c4)CC3)c(C#N)c2-c2ccc(C#N)c(F)c2)cc1O [Example 200, formate]"
  IC50: "2.95 nM"
- COMPOUND: "COc1ccc(-c2c(OC)cc(N3CCC(N)CC3)nc2-c2ccc(C#N)c(F)c2)cc1OCCNCc1ccc(/C=C/C(=O)NO)cc1 [Example 30, hydrochloride]"
  IC50: "39.9 nM"
- COMPOUND: "N#Cc1ccc(-c2nc(N3CCC(N)CC3)n3ccnc3c2-c2ccc(OCCCCCCC(=O)NO)c(O)c2)cc1F [Example 21, hydrochloride]"
  IC50: "400 nM"
- COMPOUND: "COc1ccc(-c2cnc(N3CCC(NCc4cnc(/C=C/C(=O)NO)cn4)CC3)c(C#N)c2-c2ccc(C#N)c(F)c2)cc1O [Example 133, trifluoroacetate]"
  IC50: "1.45 nM"
- COMPOUND: "N#Cc1ccc(-c2nc(N3CCC(N)CC3)n3ccnc3c2-c2ccc(OCc3ccc(/C=C/C(=O)NO)cc3)c(O)c2)cc1F [Example 23, hydrochloride]"
  IC50: "198 nM"
- COMPOUND: "COc1ccc(-c2cnc(N3CCC(NCc4ccc(/C=C/C(=O)NO)cc4)CC3)c(C#N)c2-c2ccc([N+](=O)[O-])cc2)cc1O [Example 150, formate]"
  IC50: "0.21 nM"
